Sourced from patent US20260242478A1

Catalogue of binders with associated Anti-CD28 Fab (SEQ ID NOs: 696, 697) signal
target: Anti-CD28 Fab (SEQ ID NOs: 696, 697); test: phage binding ELISA; biotinylated anti-CD28 Fab on neutravidin plate, clonal phage supernatant, anti-M13 HRP detection;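 note: wells pretreated with blocking buffer, either plus or minus CD28 antigen, then given crude phage supernatant briefly without washing in between, then washed before anti-M13 HRP readout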
Sequence (VH, as listed by the source, chain 1 of 2): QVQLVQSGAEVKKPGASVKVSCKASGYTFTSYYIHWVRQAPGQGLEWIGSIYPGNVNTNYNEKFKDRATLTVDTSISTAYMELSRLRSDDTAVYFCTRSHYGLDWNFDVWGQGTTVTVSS
Sequence (VL, as listed by the source, chain 2 of 2): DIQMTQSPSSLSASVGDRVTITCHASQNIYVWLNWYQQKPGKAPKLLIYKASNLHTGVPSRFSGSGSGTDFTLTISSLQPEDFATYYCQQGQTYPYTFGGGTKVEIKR
The answer should be a number; do not append a unit.

Need Anti-CD28 Fab (SEQ ID NOs: 696, 697) signal of RCSFRFITLAEACV (also called Peptide-92 library clone) [Phage-1577] , thanks. 1.41

Others:
Need Anti-CD28 Fab (SEQ ID NOs: 696, 697) signal of PCAAGAMWPWPVCL (also called Peptide-92 library clone) [Phage-1583] , thanks. 1.41

Need Anti-CD28 Fab (SEQ ID NOs: 696, 697) signal of TCAAGASYPWPLCV (also called Peptide-92 library clone) [Phage-1589] , thanks. 1.4

Need Anti-CD28 Fab (SEQ ID NOs: 696, 697) signal of TCAAGASWNWPACE (Read from the row with '-' = Peptide-92 residue: TCAAGASWNWPACE; also called Peptide-92 library clone) [Phage-1585] , thanks. 1.41

Need Anti-CD28 Fab (SEQ ID NOs: 696, 697) signal of TCSAGATYSWPACL (also called Peptide-92 library clone) [Phage-1584] , thanks. 1.41

Need Anti-CD28 Fab (SEQ ID NOs: 696, 697) signal of MCAAGAAWAWPLCL (also called Peptide-92 library clone) [Phage-1588] , thanks. 1.4

Need Anti-CD28 Fab (SEQ ID NOs: 696, 697) signal of TCSAGAHYPWPICL (also called Peptide-92 library clone) [Phage-1578] , thanks. 1.41

Need Anti-CD28 Fab (SEQ ID NOs: 696, 697) signal of RCAAGFHYSWPNCF (also called Peptide-92 library clone) [Phage-1581] , thanks. 1.41
